System: Calf thymus DNA
METHOD DESCRIPTION: Ratio of compound concentration to polynucleotide phosphate concentration for binding affinity to calf thymus DNA
Format: nucleic-acid assay
CONDITION DESCRIPTION: Bos taurus
METRIC NAME: Ratio
Response field accepts a number only; no unit should be typed.

Q) Need Ratio of "CC(C)NC(=N)c1ccc2[nH]c(-c3ccc(Cn4cc(CCCc5cn(Cc6ccc(-c7nc8cc(C(=N)NC(C)C)ccc8[nH]7)o6)nn5)nn4)o3)nc2c1.Cl.Cl" , thanks.
A) 0.09

Q) Consider the compound "CC(C)NC(=N)c1ccc2[nH]c(-c3ccc(Cn4cc(COCc5cn(Cc6ccc(-c7nc8cc(C(=N)NC(C)C)ccc8[nH]7)o6)nn5)nn4)o3)nc2c1" and give its measured Ratio.
A) 0.67

Q) Tell me the measured Ratio of "Clc1ccc2[nH]c(-c3ccc(Cn4cc(COc5ccc(OCc6cn(Cc7ccc(-c8nc9cc(Cl)ccc9[nH]8)o7)nn6)cc5)nn4)o3)nc2c1" , please.
A) 0.65

Q) Recorded Ratio of "Clc1ccc2[nH]c(-c3ccc(Cn4cc(CCCc5cn(Cc6ccc(-c7nc8cc(Cl)ccc8[nH]7)o6)nn5)nn4)o3)nc2c1" , please.
A) 0.05

Q) Consider the compound "c1ccc2[nH]c(-c3ccc(Cn4cc(CCCc5cn(Cc6ccc(-c7nc8ccccc8[nH]7)o6)nn5)nn4)o3)nc2c1" and give its measured Ratio.
A) 0.19

Q) // returns reported Ratio for input "Fc1ccc2[nH]c(-c3ccc(Cn4cc(COc5ccc(-c6ccc(OCc7cn(Cc8ccc(-c9nc%10cc(F)ccc%10[nH]9)o8)nn7)cc6)cc5)nn4)o3)nc2c1"
A) 0.21

Q) Which Ratio is reported for this compound? "Fc1ccc2[nH]c(-c3ccc(Cn4cc(COCc5cn(Cc6ccc(-c7nc8cc(F)ccc8[nH]7)o6)nn5)nn4)o3)nc2c1"
A) 0.47

Q) Looking for the measured Ratio of "Cl.Cl.N=C(N)c1ccc2[nH]c(-c3ccc(Cn4cc(COCc5cn(Cc6ccc(-c7nc8cc(C(=N)N)ccc8[nH]7)o6)nn5)nn4)o3)nc2c1" , can you help?
A) 0.47

Q) Fill blank: measured Ratio of the compound "Cl.Cl.N=C(N)c1ccc2[nH]c(-c3ccc(Cn4cc(CCCc5cn(Cc6ccc(-c7nc8cc(C(=N)N)ccc8[nH]7)o6)nn5)nn4)o3)nc2c1" is ____.
A) 0.05

Q) Ratio lookup needed for "Fc1ccc2[nH]c(-c3ccc(Cn4cc(CCCc5cn(Cc6ccc(-c7nc8cc(F)ccc8[nH]7)o6)nn5)nn4)o3)nc2c1" , thanks.
A) 0.15

Q) Reported Ratio, compound "c1ccc2[nH]c(-c3ccc(Cn4cc(COc5ccc(OCc6cn(Cc7ccc(-c8nc9ccccc9[nH]8)o7)nn6)cc5)nn4)o3)nc2c1" : ____
A) 0.1

Q) // returns reported Ratio for input "Cl.Cl.c1cc2[nH]c(-c3ccc(Cn4cc(CCCc5cn(Cc6ccc(-c7nc8cc(C9=NCCN9)ccc8[nH]7)o6)nn5)nn4)o3)nc2cc1C1=NCCN1"
A) 0.05

Q) Ratio lookup needed for "Clc1ccc2[nH]c(-c3ccc(Cn4cc(COCc5cn(Cc6ccc(-c7nc8cc(Cl)ccc8[nH]7)o6)nn5)nn4)o3)nc2c1" , thanks.
A) 0.21

Q) # input compound: "c1ccc2[nH]c(-c3ccc(Cn4cc(COCc5cn(Cc6ccc(-c7nc8ccccc8[nH]7)o6)nn5)nn4)o3)nc2c1" ; wanted: its Ratio
A) 0.29

Origin of the recorded values: ChEMBL document CHEMBL4346704
